# System: C. neoformans FTase (CnFTase)
# assay-explanation: CnFTase activity assay, farnesylation of a fluorescent (dansylated) peptide, 1μMIC50
# Assay type: biochemical, Cryptococcus neoformans
# assay-context: pairwise comparison of analogues differing in one R group
reported-metric: change of affinity relative to the comparator analogue (cf.)

>>> result("CCCC[C@H]1CN(c2cccc(OC(F)(F)F)c2)C(=O)CN1Cc1cncn1Cc1ccc(C#N)c(Oc2ccccc2)c1 [Compound 2u]")
"did not alter affinities"
>>> result("N#Cc1ccc(Cn2cncc2CN2CCN(c3cccc(OC(F)(F)F)c3)C(=O)C2)cc1F [Compound 2s]")
"20 fold"
>>> result("CCCC[C@H]1CN(c2cccc(OC(F)(F)F)c2)C(=O)CN1Cc1cncn1Cc1ccc(C#N)c(F)c1 [Compound 2q]")
"9 fold"
>>> result("N#Cc1ccc(Cn2cncc2CN2CCN(c3cccc(OC(F)(F)F)c3)C(=O)C2)cc1Oc1ccccc1 [Compound 2w]")
"did not alter affinities"

* * *

# target-or-system: CnFTase (Cryptococcus neoformans, UniProt J9VSJ6+T2BPA1)
# Sequence (J9VSJ6 entry or part of it): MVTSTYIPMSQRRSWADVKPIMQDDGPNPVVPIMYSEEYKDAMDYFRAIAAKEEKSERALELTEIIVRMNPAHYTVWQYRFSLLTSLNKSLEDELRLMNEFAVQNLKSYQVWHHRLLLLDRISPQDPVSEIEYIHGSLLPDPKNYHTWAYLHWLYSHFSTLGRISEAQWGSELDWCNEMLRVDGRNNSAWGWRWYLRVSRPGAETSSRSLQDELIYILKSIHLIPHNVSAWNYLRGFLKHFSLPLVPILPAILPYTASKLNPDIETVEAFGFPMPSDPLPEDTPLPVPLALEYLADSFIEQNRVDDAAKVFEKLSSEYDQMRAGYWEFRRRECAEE
# Sequence (T2BPA1 entry or part of it): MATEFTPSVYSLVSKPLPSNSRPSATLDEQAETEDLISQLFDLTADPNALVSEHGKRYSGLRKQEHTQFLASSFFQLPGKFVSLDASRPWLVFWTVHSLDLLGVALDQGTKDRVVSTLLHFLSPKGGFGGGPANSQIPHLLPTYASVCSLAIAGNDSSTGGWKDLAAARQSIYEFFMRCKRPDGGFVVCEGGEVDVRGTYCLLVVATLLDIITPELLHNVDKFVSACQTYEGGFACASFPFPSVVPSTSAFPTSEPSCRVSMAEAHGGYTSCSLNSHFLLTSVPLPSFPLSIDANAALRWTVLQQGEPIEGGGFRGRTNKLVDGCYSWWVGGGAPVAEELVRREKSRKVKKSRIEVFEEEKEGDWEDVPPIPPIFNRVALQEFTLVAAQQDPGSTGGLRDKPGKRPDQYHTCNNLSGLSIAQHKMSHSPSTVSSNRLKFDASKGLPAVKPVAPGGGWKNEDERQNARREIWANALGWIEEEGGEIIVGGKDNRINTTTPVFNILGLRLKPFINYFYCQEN
# assay-explanation: CnFTase steady-state kinetics fit to competitive/uncompetitive/mixed inhibition models
# assay-context: read-out: LKC, competitive inhibitor affinity (dissociation constant), L state; absence of phosphate (L state)
reported-metric: pKi
One number for each entry, as −log10 of the molar value.

## Task Value lookup for pKi; key = `CCCC[C@H]1CN(c2cccc(OC(F)(F)F)c2)C(=O)CN1Cc1cncn1Cc1ccc(Br)cc1`
## Result 6.49

* * *

# target-or-system: CnFTase (C. neoformans farnesyl transferase, α/β heterodimer) (Cryptococcus neoformans, UniProt J9VSJ6+T2BPA1)
# Sequence (J9VSJ6 entry or part of it): as the sequence (J9VSJ6 entry or part of it) above
# Sequence (T2BPA1 entry or part of it): as the sequence (T2BPA1 entry or part of it) above
# assay-explanation: CnFTase activity assay: farnesylation of a dansylated (fluorescent) peptide, inhibitor concentration giving half-maximal enzyme rates at 1 μM FPP (1μMIC50)
# assay-context: read-out: CnFTase IC50 (1μMIC50), condition A: 20 nM CnFTase, dansyl-GCVVM 0.62 μM, Tris-HCl pH 7.5, ZnCl2 12.5 μM, 2.5% DMSO, room temperature, triplicate
reported-metric: IC50 (nM)
Give bare numbers, in nM.

Solved entries:
>>> readout_number("N#Cc1ccc(Cn2cncc2CN2CCN(c3cccc(OC(F)(F)F)c3)C(=O)C2)cc1Oc1ccccc1 [Compound 2w]")
2600
>>> readout_number("CCCC[C@H]1CN(c2cccc(OC(F)(F)F)c2)C(=O)CN1Cc1cncn1Cc1ccc(Cl)cc1 [Compound 2e]")
260

Return reported IC50 values for all items listed beneath this line.
1. N#Cc1cc(Cn2cncc2CN2CCN(c3cccc(OC(F)(F)F)c3)C(=O)C2)ccc1Oc1ccccc1 [Compound 2v]
2. CCCC[C@H]1CN(c2cccc(OC(F)(F)F)c2)C(=O)CN1Cc1cncn1Cc1ccc(C#N)c(Oc2ccccc2)c1 [Compound 2u]

## Result
[320, 150]

* * *

# target-or-system: CnFTase (Cryptococcus neoformans, UniProt J9VSJ6+T2BPA1)
# assay-explanation: CnFTase steady-state kinetics fit to competitive/uncompetitive/mixed inhibition models
# assay-context: HKU, uncompetitive inhibitor affinity (dissociation constant), H state, 10 mM phosphate (H state)
reported-metric: pKi
Numbers only, as −log10 of the molar value.

## Task Value lookup for pKi; key = CCCC[C@H]1CN(c2cccc(OC(F)(F)F)c2)C(=O)CN1Cc1cncn1Cc1ccc(Br)cc1 [Compound 2f]
## Result 6.30

* * *

# target-or-system: CnFTase (C. neoformans farnesyl transferase, α/β heterodimer) (Cryptococcus neoformans, UniProt J9VSJ6+T2BPA1)
# assay-explanation: CnFTase activity assay: farnesylation of a dansylated (fluorescent) peptide, inhibitor concentration giving half-maximal enzyme rates at 1 μM FPP (1μMIC50)
# assay-context: read-out: CnFTase IC50 (1μMIC50), condition A: 20 nM CnFTase, dansyl-GCVVM 0.62 μM, Tris-HCl pH 7.5, ZnCl2 12.5 μM, 2.5% DMSO, room temperature, triplicate
pIC50: −log10 of the molar value.
The label depends only on pIC50: 1.0 if it is at least 6, 0.0 if it is smaller.

>>> discrete_label("CCCC[C@H]1CN(c2cccc(OC(F)(F)F)c2)C(=O)CN1Cc1cncn1Cc1ccc(C#N)cc1 [Compound 2d]")
1.0
>>> discrete_label("N#Cc1ccc(Cn2cncc2CN2CCN(c3cccc(OC(F)(F)F)c3)C(=O)C2)cc1 [Compound 2j]")
0.0
>>> discrete_label("CCCCC[C@H]1CN(c2cccc(OC(F)(F)F)c2)C(=O)CN1Cc1cncn1Cc1ccc(Br)cc1 [Compound 2l]")
1.0
>>> discrete_label("CCCC[C@H]1CN(c2cccc(OC(F)(F)F)c2)C(=O)CN1Cc1cncn1Cc1ccc(C(F)(F)F)cc1 [Compound 2h]")
1.0
>>> discrete_label("CCCC[C@H]1CN(c2cccc(Cl)c2)C(=O)CN1Cc1cncn1Cc1ccc(C#N)cc1 [Compound 2a]")
1.0
>>> discrete_label("N#Cc1ccc(Cn2cncc2CN2CCN(c3cccc(OC(F)(F)F)c3)C(=O)C2)cc1F [Compound 2s]")
1.0

## Task Check the entry CCCC[C@H]1CN(c2cccc(C)c2C)C(=O)CN1Cc1cncn1Cc1ccc(C#N)cc1 [Compound 2n] : does pIC50 equal or exceed 6?
## Result 0.0

## Task Check the entry N#Cc1cc(Cn2cncc2CN2CCN(c3cccc(OC(F)(F)F)c3)C(=O)C2)ccc1F [Compound 2r] : does pIC50 equal or exceed 6?
## Result 1.0
